assay: Mouse plasma PK after IV administration; assay type: in vivo; settings: male, C57 Bl/6J, mouse, plasma, iv, 1 mg/kg, 1 mg/kg IV, individual mice, read-out: AUCINF_obs (converted)
readout.type: AUC(0-inf) (ng·h/mL)
A number alone suffices; assume ng·h/mL.

Request: Endpoint output: AUC(0-inf) of CN1CCC2(CC1)CN(c1ccc(C(=O)Nc3cc(-c4cccs4)ccc3N)cn1)C(=O)O2 [Example 4] . Value?
Response: 3550

====

Target: Human HDAC8 (Homo sapiens)
Construct: full-length with a C-terminal His tag, MW=46.4 kDa; His tag (C); made in house; host or cells: baculovirus expression system
Sequence (Q9BY41 1-377): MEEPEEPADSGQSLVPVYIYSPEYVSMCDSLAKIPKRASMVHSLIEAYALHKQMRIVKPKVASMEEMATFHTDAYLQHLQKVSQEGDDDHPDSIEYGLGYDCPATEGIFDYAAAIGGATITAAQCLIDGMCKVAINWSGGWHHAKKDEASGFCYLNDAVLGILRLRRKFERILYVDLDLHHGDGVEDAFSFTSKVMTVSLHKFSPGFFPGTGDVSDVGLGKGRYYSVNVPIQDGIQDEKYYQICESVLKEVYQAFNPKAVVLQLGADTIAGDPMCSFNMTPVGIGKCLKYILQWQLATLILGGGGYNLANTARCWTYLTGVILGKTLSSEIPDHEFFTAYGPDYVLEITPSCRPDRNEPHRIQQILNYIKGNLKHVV
Assay: Biochemical HDAC enzymatic assay, HDAC8
Settings: Table 2; incubation time 10 min
readout.type: IC50 (nM)
A number alone suffices; assume nM.

Request: Endpoint output: IC50 of CN(C)C(=O)N1CCC2(CC1)c1ccccc1C(=O)N2Cc1ccc(C(=O)NO)cc1 . Value?
Response: 520

Request: And then O=C(NO)c1ccc(CN2C(=O)c3ccccc3C23OCCO3)cc1 , what is it?
Response: 400

Request: And then O=C(NO)c1ccc(CN2C(=O)C3(CCOC3)c3ccccc32)cc1 (centres unmarked) , what is it?
Response: 1920

Request: And then O=C(NO)c1ccc(CN2C(=O)c3ccccc3C23CCN(C2CC2)CC3)cc1 , what is it?
Response: 1200

Request: And then O=C(NO)c1ccc(CN2C(=O)c3ccccc3C23CCNCC3)cc1 , what is it?
Response: 710

====

assay: Mouse plasma PK after IV administration; type: in vivo; conditions: male, C57 Bl/6J, mouse, plasma, iv, 1 mg/kg, 1 mg/kg IV, Average, read-out: MRTINF_obs
readout.type: MRT inf (h)
A number alone suffices; assume h.

Request: Endpoint output: MRT inf of CN1CCC2(CC1)CN(c1ccc(C(=O)Nc3cc(-c4cccs4)ccc3N)cn1)C(=O)O2 [Example 4] . Value?
Response: 1.82

====

experiment: Mouse plasma PK after IV administration; type: in vivo; settings: male, C57 Bl/6J, mouse, plasma, iv, 1 mg/kg, 1 mg/kg IV, Average, read-out: T1/2 (converted)
readout.type: half-life (h)
A number alone suffices; assume h.

Request: Endpoint output: half-life of CN1CCC2(CC1)CN(c1ccc(C(=O)Nc3cc(-c4cccs4)ccc3N)cn1)C(=O)O2 [Example 4] . Value?
Response: 1.16

====

Assay: Mouse plasma PK after oral administration
Assay type: in vivo
Conditions: male, C57 Bl/6J; mouse plasma, 7 mg/kg PO, individual mice
Procedure: In vivo PK (pharmacokinetics) studies were run at Scripps Florida DMPK Core facility. Mouse plasma PK data was obtained using Compound Example 4 (N-(2-amino-5-(thiophen-2-yl)phenyl)-6-(8-methyl-2-oxo-1-oxa-3,8-diazaspiro[4.5]decan-3-yl)nicotinamide) Dose: 1 mg/kg intravenous (IV) and 7 mg/kg oral dosage (PO) Formulation: 0.1 mg/mL IV and 1 mg/mL PO solution in 10/10/80 DMSO/Tween80/Water Mice Info: Male C57 Bl/6J
readout.type: Tmax (h)
A number alone suffices; assume h.

Request: Endpoint output: Tmax of CN1CCC2(CC1)CN(c1ccc(C(=O)Nc3cc(-c4cccs4)ccc3N)cn1)C(=O)O2 [Example 4] . Value?
Response: 1

====

target: Human HDAC1 (Homo sapiens); construct: full-length with a C-terminal His-tag and a C-terminal FLAG-tag; His-tag (C); FLAG-tag (C); made in house; host or cells: baculovirus expression system; test: Biochemical HDAC enzymatic assay, HDAC1; settings: Table 1; incubation time 120 min
Sequence (Q13547 whole entry): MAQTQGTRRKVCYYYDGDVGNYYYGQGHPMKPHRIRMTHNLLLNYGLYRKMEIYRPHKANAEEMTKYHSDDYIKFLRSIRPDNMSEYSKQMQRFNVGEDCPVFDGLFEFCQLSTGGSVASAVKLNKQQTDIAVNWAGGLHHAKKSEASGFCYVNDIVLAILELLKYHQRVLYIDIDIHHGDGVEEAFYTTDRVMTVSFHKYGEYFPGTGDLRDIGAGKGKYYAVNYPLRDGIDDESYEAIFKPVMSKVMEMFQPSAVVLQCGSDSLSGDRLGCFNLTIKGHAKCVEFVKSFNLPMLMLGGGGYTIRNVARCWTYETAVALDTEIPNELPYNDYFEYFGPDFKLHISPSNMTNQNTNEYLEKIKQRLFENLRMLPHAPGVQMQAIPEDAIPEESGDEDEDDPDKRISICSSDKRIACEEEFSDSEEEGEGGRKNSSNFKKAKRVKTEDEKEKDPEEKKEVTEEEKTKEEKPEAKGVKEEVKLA
Field: pIC50. Provide a value for each of the compounds that follow.
Just the number, please; pIC50 means minus log10 of the concentration in mol/L.

Request: Endpoint output: pIC50 of Nc1ccc(-c2ccc(F)cc2)cc1NC(=O)c1ccc(N2CC3(CCOCC3)OC2=O)nc1 . Value?
Response: 7.64

Request: And then Nc1cc(F)ccc1NC(=O)c1ccc(CN2C(=O)CCCC23CNC3)cc1 , what is it?
Response: 4.70

Request: And then Nc1ccc(-c2cccs2)cc1NC(=O)c1ccc(CN2C(=O)CCC23CCNCC3)cc1 , what is it?
Response: 7.85

Request: And then Nc1ccc(-c2cccs2)cc1NC(=O)c1ccc(CN2C(=O)CCCC23CNC3)cc1 , what is it?
Response: 8.22

Request: And then Nc1ccc(-c2cccs2)cc1NC(=O)c1ccc(N2CC3(CCNCC3)CCC2=O)nc1 , what is it?
Response: 7.07

Request: And then CN1CCC2(CC1)CN(c1ccc(C(=O)Nc3cc(-c4cccs4)ccc3N)cn1)C(=O)O2 , what is it?
Response: 8.15

====

target: Human HDAC2 (Homo sapiens, UniProt Q92769); construct: full-length with a C-terminal His-tag, MW=56 kDa; His-tag (C); made in house; host or cells: baculovirus expression system; experiment: Biochemical HDAC enzymatic assay, HDAC2; details: Table 1; incubation time 120 min
Sequence (Q92769 whole entry): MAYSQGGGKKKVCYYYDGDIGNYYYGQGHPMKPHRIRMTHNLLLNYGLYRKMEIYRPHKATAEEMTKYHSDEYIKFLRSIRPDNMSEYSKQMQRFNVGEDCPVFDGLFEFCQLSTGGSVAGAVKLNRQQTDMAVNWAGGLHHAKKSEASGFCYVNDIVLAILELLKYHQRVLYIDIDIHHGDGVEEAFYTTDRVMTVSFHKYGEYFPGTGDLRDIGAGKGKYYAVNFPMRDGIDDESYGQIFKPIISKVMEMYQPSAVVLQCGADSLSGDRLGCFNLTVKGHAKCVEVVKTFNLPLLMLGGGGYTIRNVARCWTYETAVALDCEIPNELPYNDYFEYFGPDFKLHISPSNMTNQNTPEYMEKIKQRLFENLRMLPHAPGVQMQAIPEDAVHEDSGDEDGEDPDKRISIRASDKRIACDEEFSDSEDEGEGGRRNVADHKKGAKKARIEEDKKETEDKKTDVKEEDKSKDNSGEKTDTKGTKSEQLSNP
Field: IC50. Provide a value for each of the compounds that follow.
Report the figure along with its unit, number first.

Request: Endpoint output: IC50 of CN1CCC2(CC1)CN(c1ccc(C(=O)Nc3cc(-c4cccs4)ccc3N)cn1)C(=O)O2 . Value?
Response: 0.064 µM

Request: And then Nc1ccc(-c2cccs2)cc1NC(=O)c1ccc(N2CC3(CCNCC3)CCC2=O)nc1 , what is it?
Response: 0.61 µM

Request: And then Nc1ccc(-c2cccs2)cc1NC(=O)c1ccc(CN2C(=O)CCC23CCNCC3)cc1 , what is it?
Response: 0.146 µM

Request: And then Nc1ccc(-c2ccc(F)cc2)cc1NC(=O)c1ccc(N2CC3(CCOCC3)OC2=O)nc1 , what is it?
Response: 0.115 µM

Request: And then Nc1ccc(-c2cccs2)cc1NC(=O)c1ccc(CN2C(=O)CCCC23CNC3)cc1 , what is it?
Response: 0.06 µM

Request: And then Nc1cc(F)ccc1NC(=O)c1ccc(CN2C(=O)CCCC23CNC3)cc1 , what is it?
Response: 11.8 µM

====

Molecular target: Recombinant human HDAC6 (Homo sapiens, UniProt Q9UBN7)
Construct: full-length, MW=180 kDa; GST tag (N); made in house; host or cells: Sf9 insect cells (baculovirus)
Sequence (Q9UBN7 1-1215): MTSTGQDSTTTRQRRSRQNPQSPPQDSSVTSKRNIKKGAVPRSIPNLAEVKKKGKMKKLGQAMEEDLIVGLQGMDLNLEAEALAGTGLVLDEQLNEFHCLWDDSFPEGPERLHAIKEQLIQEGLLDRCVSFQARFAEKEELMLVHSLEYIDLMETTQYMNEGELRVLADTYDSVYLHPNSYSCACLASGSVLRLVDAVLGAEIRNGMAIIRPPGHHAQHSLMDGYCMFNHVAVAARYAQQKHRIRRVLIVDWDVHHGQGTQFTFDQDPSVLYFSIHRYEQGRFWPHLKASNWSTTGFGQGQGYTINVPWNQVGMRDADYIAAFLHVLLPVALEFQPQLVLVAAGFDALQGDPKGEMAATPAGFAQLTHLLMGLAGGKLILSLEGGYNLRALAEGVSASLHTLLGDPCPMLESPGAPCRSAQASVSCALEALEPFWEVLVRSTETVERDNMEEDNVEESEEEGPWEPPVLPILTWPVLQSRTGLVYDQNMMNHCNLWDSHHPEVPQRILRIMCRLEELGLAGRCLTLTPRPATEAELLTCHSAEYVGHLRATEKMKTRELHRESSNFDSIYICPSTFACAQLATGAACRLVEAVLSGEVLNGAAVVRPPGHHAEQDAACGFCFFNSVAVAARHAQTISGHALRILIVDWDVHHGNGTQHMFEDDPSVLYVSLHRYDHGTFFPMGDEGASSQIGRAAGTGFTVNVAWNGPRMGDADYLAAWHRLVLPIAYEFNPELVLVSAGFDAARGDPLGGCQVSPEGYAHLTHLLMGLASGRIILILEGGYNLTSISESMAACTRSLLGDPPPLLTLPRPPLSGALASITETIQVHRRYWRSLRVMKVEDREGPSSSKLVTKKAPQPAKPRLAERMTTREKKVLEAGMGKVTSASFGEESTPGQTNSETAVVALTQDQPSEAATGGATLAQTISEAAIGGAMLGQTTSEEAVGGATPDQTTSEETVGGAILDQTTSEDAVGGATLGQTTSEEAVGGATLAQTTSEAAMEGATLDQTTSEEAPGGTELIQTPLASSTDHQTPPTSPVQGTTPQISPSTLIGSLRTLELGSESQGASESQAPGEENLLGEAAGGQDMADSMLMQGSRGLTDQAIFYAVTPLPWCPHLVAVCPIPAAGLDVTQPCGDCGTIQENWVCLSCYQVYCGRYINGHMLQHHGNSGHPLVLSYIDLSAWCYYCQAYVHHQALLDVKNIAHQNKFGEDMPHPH
Experiment: Biochemical HDAC enzymatic assay, HDAC6
Details: Table 2; incubation time 10 min
Field: IC50. Provide a value for each of the compounds that follow.
A number alone suffices; assume nM.

Request: Endpoint output: IC50 of O=C(NO)c1ccc(CN2C(=O)c3ccccc3C23OCCO3)cc1 . Value?
Response: 29

Request: And then O=C(NO)c1ccc(CN2C(=O)c3ccccc3C23CCNCC3)cc1 , what is it?
Response: 205

Request: And then O=C(NO)c1ccc(CN2C(=O)c3ccccc3C23CCN(C2CC2)CC3)cc1 , what is it?
Response: 26

Request: And then CN(C)C(=O)N1CCC2(CC1)c1ccccc1C(=O)N2Cc1ccc(C(=O)NO)cc1 , what is it?
Response: 35

Request: And then O=C(NO)c1ccc(CN2C(=O)C3(CCOC3)c3ccccc32)cc1 (centres unmarked) , what is it?
Response: 4.5
